Biological target: EBP-Ig (N-terminal 225 amino acids of the human EPO receptor joined to an Ig heavy chain) (Homo sapiens)
Construct: Ig heavy chain (fusion partner); made in house; host or cells: NSO cells (secreted into conditioned media)
Sequence (P19235 25-250 limits assumed): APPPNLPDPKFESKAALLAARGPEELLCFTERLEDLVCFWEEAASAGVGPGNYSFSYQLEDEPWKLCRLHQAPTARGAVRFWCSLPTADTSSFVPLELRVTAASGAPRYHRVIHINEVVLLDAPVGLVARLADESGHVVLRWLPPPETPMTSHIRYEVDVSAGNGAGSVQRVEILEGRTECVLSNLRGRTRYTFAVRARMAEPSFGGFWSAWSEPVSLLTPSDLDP
Assay: Inhibition of [125I]EPO binding to immobilized EBP-Ig (EPO binding protein-Ig), scintillation Flash plate competition assay
Conditions: 50 μM compound; Table 10
Binary classification by EPO/EBP-Ig % inh @ 50 μM, with 20% as an inclusive lower bound for fulfilled; all other cases are not fulfilled.

COMPOUND	ASSIGNED_CATEGORY
NCCCCC(C(=O)NCc1ccc(OCC=Cc2ccccc2)cc1)N(CC=Cc1ccccc1)CC=Cc1ccccc1 (stereo not drawn) [compound 220]	fulfilled
COc1cccc(CCNC(=O)C(CCCCN)N(C/C=C/c2ccccc2)C/C=C/c2ccccc2)c1 (stereo not drawn) [compound 222]	fulfilled
CCCCNC(=O)C(CCCCNC(=O)c1ccccc1)N(C/C=C/c1ccccc1)C/C=C/c1ccccc1 (stereo not drawn) [compound 208]	fulfilled
COc1ccc(CCNC(=O)C(CCCCN)N(C/C=C/c2ccc(-c3ccccc3)cc2)C/C=C/c2ccc(-c3ccccc3)cc2)cc1 (stereo not drawn) [compound 238]	fulfilled
COc1ccc(CCNC(=O)C(CCCCNC(=O)Nc2ccc(Oc3ccccc3)cc2)N(C/C=C/c2cccc(Oc3ccccc3)c2)C/C=C/c2cccc(Oc3ccccc3)c2)cc1 (stereo not drawn) [compound 232]	not fulfilled
COc1ccc(CCNC(=O)C(CCCCNC(=O)Nc2ccccc2)N(C/C=C/c2cccc(Oc3ccccc3)c2)C/C=C/c2cccc(Oc3ccccc3)c2)cc1 (stereo not drawn) [compound 228]	fulfilled
NCCCCC(C(=O)NCCc1ccccc1)N(C/C=C/c1cccc(Oc2ccccc2)c1)C/C=C/c1cccc(Oc2ccccc2)c1 (stereo not drawn) [compound 239]	fulfilled
CCCNC(=O)C(CCCCN)N(C/C=C/c1ccccc1)C/C=C/c1ccccc1 (stereo not drawn) [compound 212]	not fulfilled
COc1ccc(CCNC(=O)C(CCCCNC(=O)Nc2ccc(Oc3ccccc3)cc2)N(C/C=C/c2ccccc2)C/C=C/c2ccccc2)cc1 (stereo not drawn) [compound 229]	fulfilled

====

Reported EPO/EBP-Ig % inh @ 50 μM is given for each of the following compounds.
Biological target: EBP-Ig (N-terminal 225 amino acids of the human EPO receptor joined to an Ig heavy chain) (Homo sapiens, UniProt P19235)
Construct: Ig heavy chain (fusion partner); made in house; host or cells: NSO cells (secreted into conditioned media)
Assay: Inhibition of [125I]EPO binding to immobilized EBP-Ig (EPO binding protein-Ig), scintillation Flash plate competition assay
Conditions: 50 μM compound; Table 19A
Protocol: The interaction of biotin and streptavidin is frequently employed to capture and effectively immobilize reagents useful in assay protocols and has been employed here as a simple method to capture and immobilize EBP-Ig. […] The amount of light produced was quantified to estimate the amount of ligand binding. […] All wells were adjusted to a final DMSO concentration of 5%. […] Corrected total binding (CTB) was calculated as: TB−NSB=CTB. […]
METRIC: EPO/EBP-Ig % inh @ 50 μM

                                   compound  test_result
0  COC(=O)[C@H](CCC(=O)OC(C)(C)C)NC/C=C/c1cccc(Oc2ccc(Cl)c(Cl)c2)c1 [compound 336]          32%
1  CC(C)(C)c1ccc(Oc2cccc(/C=C/CN[C@@H](CCC(=O)O)C(=O)O)c2)cc1.O=C(O)C(F)(F)F [compound 331]          18%
2  COC(=O)[C@H](CCC(=O)O)NC/C=C/c1cccc(Oc2ccc(Cl)c(Cl)c2)c1.O=C(O)C(F)(F)F [compound 328]          33%
3  O=C(O)CCC(NCC=Cc1cccc(Oc2ccccc2)c1)C(=O)O (centres unmarked) [cpd 326, N-(3-Phenoxycinnamyl)Glu-OH]           0%
4  O=C(O)C(F)(F)F.O=C(O)CC[C@H](NC/C=C/c1ccc(-c2ccccc2)cc1)C(=O)O [compound 329]          13%
